Test system: DMS-273
Experiment Description: NCI tumour cell line growth inhibition, 48 h
Calls of active or inactive are those of the source. Cut-off read from the data, not from the text of the source: active = GI50 up to about 1.1 µM and inactive = higher.
Result Type: GI50

# query: GI50 of entry CCCN(CCC)C1=Nc2ccccc2-n2cnnc2C1
> 100 µM (inactive)

# query: GI50 of entry COC(=O)N/N=C(/CCN1CCCC1)CC(c1ccccc1)c1c(O)c2ccccc2oc1=O (stereo unspecified)
> 100 µM (inactive)

# query: GI50 of entry O=C(c1ccccc1)[C@H]1Nc2ccc(Cl)cc2[C@H]2c3ccccc3O[C@H]21
18.7 µM (inactive)

# query: GI50 of entry CCOc1ccc(NCC2CC/C(=C\c3ccccc3OC)C2=O)cc1 (stereo unspecified)
2.58 µM (inactive)

# query: GI50 of entry COc1ccc(C(c2c(O)c3ccccc3n(-c3ccccc3)c2=O)c2c(O)c3ccccc3n(-c3ccccc3)c2=O)cc1
> 100 µM (inactive)

# query: GI50 of entry CCC1CCC2CCCC(C)N12 (stereo unspecified)
> 100 µM (inactive)

# query: GI50 of entry O=C(/C=C/c1ccccc1)c1ccc(NCc2nc3ccccc3[nH]2)cc1
4.5 µM (inactive)

# query: GI50 of entry C#CCNC(=O)CCC(N)C(=O)O (stereo unspecified)
> 100 µM (inactive)

# query: GI50 of entry CN(N=O)C(=O)N[C@H]1C(O)O[C@H](CO)[C@@H](O)[C@@H]1O (stereo partly specified)
528 µM (inactive)

# query: GI50 of entry COc1cccc2ccc(C(=O)c3ccccc3)nc12
> 100 µM (inactive)

# query: GI50 of entry Cc1ccc(F)c2c(=O)cc(-c3ccccc3)[nH]c12
94.6 µM (inactive)

* * *

Assign GI50 to each entry below.
Test system: COLO 205
Experiment Description: NCI tumour cell line growth inhibition, 48 h
The source made the active and inactive calls. Rule as the data show it: active = GI50 up to about 1.1 µM and inactive = higher.

# query: GI50 of entry CCCCCCCCc1cc2c(O)c(c1)Cc1cc(CCCCCCCC)cc(c1O)Cc1cc(CCCCCCCC)cc(c1O)Cc1cc(CCCCCCCC)cc(c1O)Cc1cc(CCCCCCCC)cc(c1O)Cc1cc(CCCCCCCC)cc(c1O)C2
> 100 µM (inactive)

# query: GI50 of entry CC(=O)C1=C(C)NC2C=CC=CN12 (stereo not drawn)
> 100 µM (inactive)

# query: GI50 of entry O=c1/c(=C/c2ccc(Cl)cc2Cl)sc2nc3ccccc3n12
> 100 µM (inactive)

# query: GI50 of entry C[C@H](N)C(=O)N[C@@H]1[C@H]2C(=C(O)C[C@@H](O)[C@@H]2O)C(=O)O[C@@H]1C
> 100 µM (inactive)

# query: GI50 of entry C=C1C(=O)C[C@H]2C(=C)C(=O)O[C@@H]2C2C1CC[C@@]2(C)O (stereo partly drawn)
14.5 µM (inactive)

# query: GI50 of entry CCOC(=O)C(NC(=O)c1ccccc1)(N1CCOCC1)C(F)(F)F (stereo not drawn)
> 100 µM (inactive)

# query: GI50 of entry COC(=O)c1cc(C#N)[nH]c1-c1ccsc1
> 100 µM (inactive)

# query: GI50 of entry COc1ccc2c(c1)c1c(n2CCN2CCCCC2)-c2ccccc2CC1
13.6 µM (inactive)

# query: GI50 of entry O=C1NCN(c2ccccc2)C12CCN(CCc1ccc3[nH]c(=S)[nH]c3c1)CC2
16.3 µM (inactive)

# query: GI50 of entry COC(=O)CCCC(=O)NC1=C(Nc2ccccc2)C(=O)c2ccccc2C1=O
16.3 µM (inactive)

# query: GI50 of entry CC(=O)c1ccc(-c2oc(-c3ccccc3)cc2-c2ccc3c(c2)OCO3)s1
> 100 µM (inactive)

# query: GI50 of entry CC1(C)CC2=C(SC3C=CC=CC3N2)C(=O)C1C(=O)C(N)=O (stereo not drawn)
> 100 µM (inactive)

# query: GI50 of entry CC(C)C1C(=O)NC(CO)Cc2c[nH]c3c(C(c4c[nH]c5ccccc45)C(O)CO)ccc(c23)N1C (stereo not drawn)
4.79 µM (inactive)

# query: GI50 of entry O=C(Nn1c(-c2ccccc2)nc2ccccc2c1=O)c1ccc([N+](=O)[O-])cc1
> 100 µM (inactive)

# query: GI50 of entry Cc1cc2c(cc1-c1cc3c(cc1C)C(C(C)C)=C(O)C(=O)/C3=C\NCC1CCCN3CCCCC13)/C(=C/NCC1CCCN3CCCCC13)C(=O)C(O)=C2C(C)C (stereo not drawn)
3.47 µM (inactive)

# query: GI50 of entry CC(=O)C1=CN=C2C(=O)N(c3ccccc3)N(C)C12C (stereo not drawn)
> 100 µM (inactive)

# query: GI50 of entry O=S1(=O)N=C(NCc2c[nH]c3ccccc23)N(c2ccccc2)c2ccncc21
> 100 µM (inactive)

# query: GI50 of entry COc1ccc(OC)c([N+](=O)[O-])c1-c1nc2sccn2c1/C=N/N=C(N)N
29 µM (inactive)

# query: GI50 of entry N#Cc1c(O)n(-c2ccccc2)c(=O)c2c(N)n[nH]c12
> 100 µM (inactive)

# query: GI50 of entry O=C1[C@H]2ON(c3ccccc3)C(c3ccc(Cl)cc3)[C@H]2C(=O)N1c1ccc(Cc2ccc(N3C(=O)[C@@H]4ON(c5ccccc5)C(c5ccc(Cl)cc5)[C@@H]4C3=O)cc2)cc1 (stereo partly drawn)
> 100 µM (inactive)

# query: GI50 of entry CN(C)c1ccc(/C=C2\N=C(NN)NC2=O)cc1
> 100 µM (inactive)

# query: GI50 of entry O=c1[nH]c(=S)[nH]cc1CN1CCOCC1
> 100 µM (inactive)

# query: GI50 of entry C[N+](C)(C)CC1CCCCCCCCCCC1=O (stereo not drawn)
> 100 µM (inactive)
